Cited source for all entries: ChEMBL document CHEMBL1145131

- procedure-summary: Compound was tested in vitro for loss of compound after 2 hours exposure to hepatocytes of human at 25 uM concentration
- Assay type: ADME, organism-based, Hepatocyte
- assay-setup: read-out: Metabolism
Please go through the items and note down their metabolised at 2 h, 25 µM.
Just the number please, in %, no unit attached.

Prompt: Item under review: "CCOC(=O)/C=C/[C@H](C[C@@H]1CCNC1=O)NC(=O)[C@H](Cc1ccc(F)c(F)c1)n1cccc(NC(=O)c2cc(C)on2)c1=O" . Reported metabolised at 2 h, 25 µM?
Response: 94

Prompt: Item under review: C#CC[C@@H](C(=O)N[C@H](/C=C/C(=O)OCC)C[C@@H]1CCNC1=O)n1cccc(NC(=O)c2cc(C)on2)c1=O [IMOCITRELVIR] . Reported metabolised at 2 h, 25 µM?
Response: 85

Prompt: Item under review: "CC[C@@H](C(=O)N[C@H](/C=C/C(=O)OCc1ccccc1)C[C@@H]1CCNC1=O)n1cccc(NC(=O)c2cc(C)on2)c1=O" . Reported metabolised at 2 h, 25 µM?
Response: 27

Prompt: Item under review: "CCOC(=O)/C=C/[C@H](C[C@@H]1CCNC1=O)NC(=O)[C@H](CC)n1cccc(NC(=O)c2cc(C)on2)c1=O" . Reported metabolised at 2 h, 25 µM?
Response: 82

Prompt: Item under review: "C#CC[C@@H](C(=O)N[C@H](/C=C/C(=O)OCc1ccccc1)C[C@@H]1CCNC1=O)n1cccc(NC(=O)c2cc(C)on2)c1=O" . Reported metabolised at 2 h, 25 µM?
Response: 51
